Recorded below: Ki, system human vasopressin V1b receptor (Homo sapiens).

In [3]: df
Out[3]:
                                   molecule       test_value
0  CCCN1CCN([C@H]2CCN(C(=O)C(c3ccccc3)n3c(=O)n(S(=O)(=O)c4ccc(C#N)cc4)c4ccc(C#N)cc43)C2)CC1 (stereo partly drawn)    100 to 500 nM
1  COc1ccc(S(=O)(=O)n2c(=O)n(C(C(=O)Nc3ccccc3)c3ccccc3)c3cc(Cl)ccc32)cc1 (stereo not drawn)  500 to 10000 nM
2  CN1CCC(N2CCN(C(=O)C(c3ccccc3)n3c(=O)n(S(=O)(=O)c4ccc(C#N)cc4)c4cc(Cl)ccc43)CC2)CC1 (stereo not drawn)  500 to 10000 nM
3  COc1ccc(S(=O)(=O)n2c(=O)n(C(C(=O)N3CCC(n4ccnc4)CC3)c3ccccc3)c3cc(Cl)ccc32)cc1 (stereo not drawn)  500 to 10000 nM
4  COc1ccc(S(=O)(=O)n2c(=O)n(C(C(=O)N3CCC[C@H](NC4CCN(C(C)C)CC4)C3)c3ccccc3)c3cc(C#N)ccc32)cc1 (stereo partly drawn)         < 100 nM

Supply Ki measured with human vasopressin V1b receptor (Homo sapiens) for COc1ccc(S(=O)(=O)n2c(=O)n(C(C(=O)N3CCC[C@H](N4CCN(C)CC4)C3)c3ccccc3)c3cc(C#N)ccc32)cc1 (stereo partly drawn) .
Sequence (P47901 whole entry): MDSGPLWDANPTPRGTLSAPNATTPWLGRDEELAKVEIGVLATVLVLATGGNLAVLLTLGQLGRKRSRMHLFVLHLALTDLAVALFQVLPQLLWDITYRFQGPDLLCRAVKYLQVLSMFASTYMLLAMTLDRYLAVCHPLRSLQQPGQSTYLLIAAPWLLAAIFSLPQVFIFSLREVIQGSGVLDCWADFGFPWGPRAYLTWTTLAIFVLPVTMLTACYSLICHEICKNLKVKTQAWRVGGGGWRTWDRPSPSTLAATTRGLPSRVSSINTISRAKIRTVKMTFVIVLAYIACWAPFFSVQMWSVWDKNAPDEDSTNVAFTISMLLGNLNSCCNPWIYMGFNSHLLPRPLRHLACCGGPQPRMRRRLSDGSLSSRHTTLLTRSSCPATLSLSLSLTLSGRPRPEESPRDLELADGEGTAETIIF
< 100 nM

Find Ki for COc1ccc(S(=O)(=O)n2c(=O)n(C(C(=O)N3CCC[C@H](N)C3)c3ccccc3)c3cc(C#N)ccc32)cc1 (stereo partly drawn) on human vasopressin V1b receptor (Homo sapiens) and write it down.
100 to 500 nM

Report Ki under test system human vasopressin V1b receptor (Homo sapiens) for COc1ccc(S(=O)(=O)n2c(=O)n(C(C(=O)N[C@H]3CCNC3)c3ccccc3)c3cc(Cl)ccc32)cc1 (stereo partly drawn) .
500 to 10000 nM

Give human vasopressin V1b receptor (Homo sapiens) Ki for the following molecule: CCCN1CCN(C[C@H]2CCN(C(=O)C(c3ccccc3)n3c(=O)n(S(=O)(=O)c4ccc(OC)cc4)c4ccc(C#N)cc43)C2)CC1 (stereo partly drawn)
< 100 nM
